Test system: M14
Test: in vitro melanoma cell growth inhibition (NCI screen)
endpoint name: cytotoxicity log GI50 (M)
# number only, unit M dropped from output

Request: Entry under review: Cc1nc2c(n1CCN(C)C)C(=O)c1ccccc1C2=O . Reported cytotoxicity log GI50?
Result: -4.93

Request: Same lookup for CC(=O)NC1=C(NCC(C)C)C(=O)c2ccccc2C1=O , please.
Result: -4.74

Request: Repeat with COC(=O)CCC(=O)NC1=C(Nc2ccccc2)C(=O)c2ccccc2C1=O
Result: -5.71

Request: One more compound: COC(=O)CCC(=O)NC1=C(NCc2ccccc2)C(=O)c2ccccc2C1=O
Result: -4.73

Request: Now give it for CCc1nc2c(n1CC)C(=O)c1ccccc1C2=O too.
Result: -4.63

Request: Queued: Cc1nc2c(n1CCO)C(=O)c1ccccc1C2=O
Result: -4.67

Request: Also CCn1c(-c2ccc(F)cc2)nc2c1C(=O)c1ccccc1C2=O , if possible.
Result: -4.15

* * *

System: SK-MEL-2
Experiment: in vitro melanoma cell growth inhibition (NCI screen)
endpoint name: cytotoxicity log GI50 (M)
Supply the numeric figure in M, leaving out any unit text.

Request: May I ask what cytotoxicity log GI50 has been recorded for Cc1nc2c(n1CCN(C)C)C(=O)c1ccccc1C2=O [Compound 15] ?
Result: -4.91

Request: Now try COc1ccc(CNC2=C(NC(C)=O)C(=O)c3ccccc3C2=O)cc1 [Compound 41] .
Result: -5.04

Request: Also, O=C1c2ccccc2C(=O)c2[nH]c(Cc3ccc(F)cc3)nc21 [Compound 4c] please.
Result: -4.86

* * *

Please provide measured cytotoxicity log GI50 for the entries that follow.
System: RPMI-8226
Assay: in vitro leukemia cell growth inhibition (NCI screen)
Numeric answer only, unit M assumed.

Request: // lookup cytotoxicity log GI50 for CC(=O)NC1=C(NC(C)(C)C)C(=O)c2ccccc2C1=O
Result: -4.93

Request: Next entry: CCn1c(Cc2ccc(F)cc2)nc2c1C(=O)c1ccccc1C2=O
Result: -4.94

Request: Same thing, different compound: CCC(C)NC1=C(NC(C)=O)C(=O)c2ccccc2C1=O (stereo not drawn)
Result: -4.87

* * *

Can you tell me cytotoxicity log GI50 for the items I'm about to list?
Tested on: U 251
Experiment: in vitro CNS cancer cell growth inhibition (NCI screen)
Returns: string containing the numeric result and its unit.

Request: Field request: cytotoxicity log GI50 | item: CCC(c1ccc(F)cc1)c1nc2c(n1CC)C(=O)c1ccccc1C2=O (stereo not shown)
Result: -4.71 M

Request: What do you have for O=C1c2ccccc2C(=O)c2[nH]c(Cc3ccccc3F)nc21 ?
Result: -5.10 M

Request: Param item: NC1=C(NC(=O)Cc2ccc(F)cc2)C(=O)c2ccccc2C1=O
Result: -5.09 M

Request: Then CCC(c1ccccc1F)c1nc2c(n1CC)C(=O)c1ccccc1C2=O (stereo not shown) ?
Result: -5.07 M

* * *

Tested on: UACC-257
Assay: in vitro melanoma cell growth inhibition (NCI screen)
I'd appreciate it if you could supply cytotoxicity log GI50 values for the items below.
Quick note: give the figure in M, leave out the unit.

Request: Which cytotoxicity log GI50 is listed for CCn1c(Cc2ccc(F)cc2)nc2c1C(=O)c1ccccc1C2=O ?
Result: -5.10

Request: // query: CC(=O)NC1=C(NC(C)(C)C)C(=O)c2ccccc2C1=O
Result: -4.80

Request: Note, next up: CC(=O)NC1=C(NCc2ccc(Cl)cc2)C(=O)c2ccccc2C1=O
Result: -5.21

Request: And COC(=O)CCC(=O)NC1=C(Nc2ccc(OC)cc2)C(=O)c2ccccc2C1=O ?
Result: -5.37

Request: CCc1nc2c(n1CC)C(=O)c1ccccc1C2=O
Result: -4.60

Request: Follow-up item: CC(=O)NC1=C(NCCCl)C(=O)c2ccccc2C1=O
Result: -4.82

Request: Check CCC(C)(C)NC1=C(NC(C)=O)C(=O)c2ccccc2C1=O too.
Result: -4.69

Request: Now the molecule O=C(O)CCc1nc2c(n1Cc1ccccc1)C(=O)c1ccccc1C2=O
Result: -4.47

Request: Another molecule to check: COC(=O)CCCC(=O)NC1=C(Nc2ccc(OC)cc2)C(=O)c2ccccc2C1=O
Result: -4.74

Request: And then Cc1nc2c(n1CCCl)C(=O)c1ccccc1C2=O , what is it?
Result: -4.85

Request: Also check CC(=O)NC1=C(NCCN(C)C)C(=O)c2ccccc2C1=O
Result: -5.03

Request: Further, for CCCc1nc2c(n1CC)C(=O)c1ccccc1C2=O ?
Result: -4.74

Request: Then this molecule: Cc1nc2c(n1CC(C)C)C(=O)c1ccccc1C2=O
Result: -4.75

Request: Here is the next molecule: O=C(O)CCCc1nc2c(n1-c1ccccc1)C(=O)c1ccccc1C2=O
Result: -4.48

Request: Cool, now NC1=C(NC(=O)Cc2ccccc2F)C(=O)c2ccccc2C1=O
Result: -4.53

Request: How about this molecule: CCNC1=C(NC(=O)c2ccc(F)cc2)C(=O)c2ccccc2C1=O
Result: -4.80

Request: Could you do the same for Cc1nc2c(n1CCO)C(=O)c1ccccc1C2=O , please?
Result: -4.78

Request: And CCC(CC)n1c(C)nc2c1C(=O)c1ccccc1C2=O ?
Result: -4.62

Request: Next molecule up: CCNC1=C(NC(=O)c2ccccc2)C(=O)c2ccccc2C1=O
Result: -4.63

Request: Would you kindly repeat that for CC(=O)NC1=C(NCC(C)(C)C)C(=O)c2ccccc2C1=O ?
Result: -4.30

Request: Same thing, different molecule: O=C(O)CCCc1nc2c(n1Cc1ccccc1)C(=O)c1ccccc1C2=O
Result: -4.60

Request: Now the same for CCCC(=O)NC1=C(NCC)C(=O)c2ccccc2C1=O
Result: -4.40

Request: Input O=C(NC1=C(Cl)C(=O)c2ccccc2C1=O)c1ccc(F)cc1
Result: -5.71

Request: Please do the same for COc1ccc(-n2c(CCCC(=O)O)nc3c2C(=O)c2ccccc2C3=O)cc1 as well.
Result: -4.56

Request: Please do the same for COC(=O)CCC(=O)NC1=C(Nc2ccccc2)C(=O)c2ccccc2C1=O as well.
Result: -5.56

Request: Moving on to COC(=O)CCCC(=O)NC1=C(NCc2ccccc2)C(=O)c2ccccc2C1=O
Result: -4.53

Request: Thanks! And COc1ccc(CNC2=C(NC(C)=O)C(=O)c3ccccc3C2=O)cc1 ?
Result: -5.06

Request: Now consider CCC(C)n1c(C)nc2c1C(=O)c1ccccc1C2=O (stereo not shown) .
Result: -4.55

* * *

Tested on: HL-60(TB)
Experiment: in vitro leukemia cell growth inhibition (NCI screen)
Param threshold (-5 M) applies to cytotoxicity log GI50; output class 1 when value >= threshold, class 0 when value < threshold.

Request: // inclusive: cytotoxicity log GI50 at least -5 M? input: Cc1nc2c(n1Cc1ccc(F)cc1)C(=O)c1ccccc1C2=O
Result: class 0

Request: Queued: CCC(C)n1c(C)nc2c1C(=O)c1ccccc1C2=O (stereo not drawn)
Result: class 1

Request: What would you report for CC(=O)NC1=C(NCC(C)C)C(=O)c2ccccc2C1=O ?
Result: class 0

Request: How about COC(=O)CCC(=O)NC1=C(Nc2ccccc2)C(=O)c2ccccc2C1=O ?
Result: class 0

Request: Likewise for COc1ccc(C(=O)NC2=C(Cl)C(=O)c3ccccc3C2=O)cc1 ?
Result: class 0

Request: Cool, now COc1ccc(-n2c(CCCC(=O)O)nc3c2C(=O)c2ccccc2C3=O)cc1
Result: class 1

Request: And then Cc1nc2c(n1C(C)(C)C)C(=O)c1ccccc1C2=O , what is it?
Result: class 1

Request: Can you handle Cc1nc2c(n1CCC(C)C)C(=O)c1ccccc1C2=O next?
Result: class 0

Request: Another compound to check: COc1cc(OC)cc(C(=O)NC2=C(Cl)C(=O)c3ccccc3C2=O)c1
Result: class 0

Request: Consider next the compound O=C(Cc1ccccc1F)NC1=C(Cl)C(=O)c2ccccc2C1=O in the same way.
Result: class 0

Request: Also COc1ccc(Cn2c(C)nc3c2C(=O)c2ccccc2C3=O)cc1 , if possible.
Result: class 0

Request: Now give it for CC(=O)NC1=C(NCC(C)(C)C)C(=O)c2ccccc2C1=O too.
Result: class 1

Request: # iterate: CC(=O)NC1=C(NC(C)(C)C)C(=O)c2ccccc2C1=O
Result: class 0

Request: Entry O=C(O)CCCc1nc2c(n1-c1ccccc1)C(=O)c1ccccc1C2=O please
Result: class 1

Request: # iterate: COc1ccc(CNC2=C(NC(C)=O)C(=O)c3ccccc3C2=O)cc1
Result: class 0

Request: Okay, and CC(=O)NC1=C(NCCO)C(=O)c2ccccc2C1=O ?
Result: class 1

Request: Also Cc1nc2c(n1Cc1ccc(Cl)cc1)C(=O)c1ccccc1C2=O , if possible.
Result: class 0

Request: Ok, now Cc1nc2c(n1CCO)C(=O)c1ccccc1C2=O
Result: class 1

Request: Lookup CCC(c1ccc(F)cc1)c1nc2c(n1CC)C(=O)c1ccccc1C2=O (stereo not drawn)
Result: class 1

Request: Okay, and CCC(C)(C)NC1=C(NC(C)=O)C(=O)c2ccccc2C1=O ?
Result: class 1

Request: And what about the compound CCC(C)Cn1c(C)nc2c1C(=O)c1ccccc1C2=O (stereo not drawn) ?
Result: class 0

Request: Also, CCCC(=O)NC1=C(NCC)C(=O)c2ccccc2C1=O please.
Result: class 1

Request: Can you handle Cc1ccc(Cn2c(C)nc3c2C(=O)c2ccccc2C3=O)cc1 next?
Result: class 0

Request: Next: Cc1nc2c(n1CCN(C)C)C(=O)c1ccccc1C2=O
Result: class 0

Request: Another compound: O=C(NC1=C(Cl)C(=O)c2ccccc2C1=O)c1ccc(F)cc1
Result: class 0

Request: Queued: CCn1c(Cc2ccc(F)cc2)nc2c1C(=O)c1ccccc1C2=O
Result: class 0

Request: Now the same for COC(=O)CCCC(=O)NC1=C(NCc2ccccc2)C(=O)c2ccccc2C1=O
Result: class 1

Request: Next entry: Cc1nc2c(n1CC(C)(C)C)C(=O)c1ccccc1C2=O
Result: class 1

Request: Now the same for O=C1c2ccccc2C(=O)c2[nH]c(Cc3ccccc3F)nc21
Result: class 1

Request: Try this compound too: COC(=O)CCC(=O)NC1=C(NCc2ccccc2)C(=O)c2ccccc2C1=O
Result: class 1

Request: Same question for O=C(Cc1ccc(F)cc1)NC1=C(Cl)C(=O)c2ccccc2C1=O please.
Result: class 0

Request: Input CCC(C)NC1=C(NC(C)=O)C(=O)c2ccccc2C1=O (stereo not drawn)
Result: class 1

Request: Repeat for the following compound: Cc1nc2c(n1CC(C)C)C(=O)c1ccccc1C2=O
Result: class 1

Origin of the recorded values: patent US5789431A
